Entry source: ChEMBL document CHEMBL4725248

- TARGET_SYSTEM: Bifunctional epoxide hydrolase 2 (Homo sapiens, UniProt P34913)
- Sequence (P34913 whole entry): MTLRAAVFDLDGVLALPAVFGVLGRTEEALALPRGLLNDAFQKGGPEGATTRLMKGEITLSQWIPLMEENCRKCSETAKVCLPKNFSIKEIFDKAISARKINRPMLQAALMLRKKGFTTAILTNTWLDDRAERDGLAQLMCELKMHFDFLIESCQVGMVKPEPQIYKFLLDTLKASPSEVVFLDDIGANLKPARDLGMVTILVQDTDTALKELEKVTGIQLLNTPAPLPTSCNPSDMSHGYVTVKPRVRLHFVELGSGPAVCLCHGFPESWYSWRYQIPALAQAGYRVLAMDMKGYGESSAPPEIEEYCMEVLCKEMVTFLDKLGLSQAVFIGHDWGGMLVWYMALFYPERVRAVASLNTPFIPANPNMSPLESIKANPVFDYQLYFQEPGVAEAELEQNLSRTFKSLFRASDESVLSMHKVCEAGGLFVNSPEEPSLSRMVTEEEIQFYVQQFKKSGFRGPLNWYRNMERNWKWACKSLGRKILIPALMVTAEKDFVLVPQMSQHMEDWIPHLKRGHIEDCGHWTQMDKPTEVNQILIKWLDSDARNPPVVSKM
- MEASUREMENT_PROTOCOL: Inhibition of His-tagged human recombinant soluble epoxide hydrolase pre-incubated for 15 mins before Epoxy-fluor7 substrate addition and measured after 20 mins by fluorescence based assay
pIC50: −log10 of the molar value.
ENDPOINT_LABEL: pIC50

I: O=C(Nc1ccc(Sc2ccccc2Cl)cc1)C1CCN(C(=O)c2ccc(F)cc2)CC1
II: O=C(NC1CCC2CCCC2C1)C1CCCN(S(=O)(=O)c2cccs2)C1 (configuration not stated)
# return whichever of I and II has the smaller pIC50 Answer by quoting the chosen item's label.
II
(II: 8.70, I: 9.00)
